Record: IC50 reported on Rho-associated protein kinase 1 (Homo sapiens).
Sequence (Q13464 whole entry): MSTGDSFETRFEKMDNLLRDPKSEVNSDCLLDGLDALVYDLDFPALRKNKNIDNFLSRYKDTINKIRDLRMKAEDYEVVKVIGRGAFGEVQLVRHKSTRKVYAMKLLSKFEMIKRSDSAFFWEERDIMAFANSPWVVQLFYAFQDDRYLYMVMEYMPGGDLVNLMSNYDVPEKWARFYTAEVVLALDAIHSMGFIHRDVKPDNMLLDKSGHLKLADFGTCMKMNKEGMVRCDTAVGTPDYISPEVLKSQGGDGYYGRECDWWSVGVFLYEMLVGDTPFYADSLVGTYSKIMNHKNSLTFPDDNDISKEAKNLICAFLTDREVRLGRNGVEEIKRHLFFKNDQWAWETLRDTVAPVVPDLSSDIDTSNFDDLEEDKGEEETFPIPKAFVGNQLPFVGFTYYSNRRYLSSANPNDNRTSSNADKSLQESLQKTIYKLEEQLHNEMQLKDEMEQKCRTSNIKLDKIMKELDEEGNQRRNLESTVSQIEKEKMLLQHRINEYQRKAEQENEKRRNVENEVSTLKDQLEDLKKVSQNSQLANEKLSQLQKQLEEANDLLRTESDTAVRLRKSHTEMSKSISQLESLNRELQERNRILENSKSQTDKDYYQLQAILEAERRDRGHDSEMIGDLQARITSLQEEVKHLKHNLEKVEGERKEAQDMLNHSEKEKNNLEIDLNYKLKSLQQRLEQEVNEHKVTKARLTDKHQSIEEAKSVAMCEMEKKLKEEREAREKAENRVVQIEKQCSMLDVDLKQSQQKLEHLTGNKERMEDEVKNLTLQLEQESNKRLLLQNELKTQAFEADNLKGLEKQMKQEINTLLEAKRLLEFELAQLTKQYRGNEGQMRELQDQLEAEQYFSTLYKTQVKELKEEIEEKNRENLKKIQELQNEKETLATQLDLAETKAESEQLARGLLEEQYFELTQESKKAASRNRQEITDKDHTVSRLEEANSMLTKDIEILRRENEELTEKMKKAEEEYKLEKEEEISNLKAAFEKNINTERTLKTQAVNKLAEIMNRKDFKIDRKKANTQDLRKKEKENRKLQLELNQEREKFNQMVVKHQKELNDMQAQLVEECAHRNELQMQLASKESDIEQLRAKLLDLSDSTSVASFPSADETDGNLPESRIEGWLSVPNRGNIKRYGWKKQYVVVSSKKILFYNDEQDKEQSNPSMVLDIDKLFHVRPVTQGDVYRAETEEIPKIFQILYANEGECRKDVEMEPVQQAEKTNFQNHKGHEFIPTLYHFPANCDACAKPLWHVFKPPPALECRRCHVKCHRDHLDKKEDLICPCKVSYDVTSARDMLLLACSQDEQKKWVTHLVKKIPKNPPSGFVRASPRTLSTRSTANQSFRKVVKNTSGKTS

* c1cc(-c2cnco2)nc(-c2cnc(-c3cccc(-c4cccc(-c5ncc(-c6cccc(-c7cnco7)n6)o5)n4)n3)o2)c1 | > 1000 nM

Please find the next compound below.
QUERY: What measured IC50 is associated with c1cc(-c2cnco2)nc(-c2cnc(-c3cccc(-c4ncc(-c5cccc(-c6cnco6)n5)o4)n3)o2)c1 on Rho-associated protein kinase 1 (Homo sapiens)?
RESULT: > 1000 nM

====

Kindly state IC50 for each of the entries shown.
- Test system: A-375
- procedure-details: Antiproliferative activity against human A375 cells after 72 hrs by MTS assay
- Assay type: functional, cell-based
- condition-description: A-375, 72 h

- c1cc(-c2cnco2)nc(-c2cnc(-c3cccc(-c4ncc(-c5cccc(-c6cnco6)n5)o4)n3)o2)c1: 0.44 µM

Please find the next compound below.
QUERY: Entry c1cc(-c2cnco2)nc(-c2cnc(-c3cccc(-c4cccc(-c5ncc(-c6cccc(-c7cnco7)n6)o5)n4)n3)o2)c1 : reported IC50 = ?
RESULT: 0.592 µM
